Measured values drawn from ChEMBL document CHEMBL5724914 for this set.

# run_description: The drug is tested on Z-010 corresponding to metagenome with ENA study accession number: PRJEB37062 and ENA sample accession number: ERS12561810 for biotransformation under anaerobic condition. The drug concentrations were measured over 9 timepoints collected between 0 and 24 hours of incubation by liquid-chromatography-coupled mass spectrometry (LC–MS); also: call rule not given here
# condition_description: 2 µM
value_type: Bacterial Biotransformation

                                    molecule                   value_type                     value
 0  CO[C@]12C[C@@H](COC(=O)c3cncc(Br)c3)CN(C)[C@@H]1Cc1cn(C)c3cccc2c13  Bacterial Biotransformation      Compound metabolized
 1  COC(=O)[C@H]1[C@H]2C[C@@H]3c4[nH]c5cc(OC)ccc5c4CCN3C[C@H]2C[C@@H](OC(=O)c2cc(OC)c(OC)c(OC)c2)[C@@H]1OC  Bacterial Biotransformation  Compound NOT metabolized
 2  CCCCC1=NC2(CCCC2)C(=O)N1Cc1ccc(-c2ccccc2-c2nnn[nH]2)cc1  Bacterial Biotransformation      Compound metabolized
 3  OCCN1CCN(CCCN2c3ccccc3Sc3ccc(C(F)(F)F)cc32)CC1  Bacterial Biotransformation      Compound metabolized
 4                     NC12CC3CC(CC(C3)C1)C2  Bacterial Biotransformation  Compound NOT metabolized
 5  O=c1[nH]c2ccccc2n1CCCN1CCC(n2c(=O)[nH]c3cc(Cl)ccc32)CC1  Bacterial Biotransformation  Compound NOT metabolized
 6  COc1cc2c(c(OC)c1OC)-c1ccc(OC)c(=O)cc1[C@@H](NC(C)=O)CC2  Bacterial Biotransformation      Compound metabolized
 7  COCCc1ccc(OCC(O)CNC(C)C)cc1.COCCc1ccc(OCC(O)CNC(C)C)cc1.O=C(O)C(O)C(O)C(=O)O (centres undefined) [METOPROLOL TARTRATE]  Bacterial Biotransformation      Compound metabolized
 8  Cc1nc2n(c(=O)c1CCN1CCC(c3noc4cc(F)ccc34)CC1)CCCC2  Bacterial Biotransformation      Compound metabolized
 9  CC(O)(CS(=O)(=O)c1ccc(F)cc1)C(=O)Nc1ccc(C#N)c(C(F)(F)F)c1 (centres undefined) [BICALUTAMIDE]  Bacterial Biotransformation  Compound NOT metabolized
10  COc1ccc2c3c1O[C@H]1C[C@@H](O)C=C[C@@]31CCN(C)C2  Bacterial Biotransformation      Compound metabolized
11  Fc1ccc([C@@H]2CCNC[C@H]2COc2ccc3c(c2)OCO3)cc1  Bacterial Biotransformation      Compound metabolized
12  CC(C)(C(=O)O)c1ccc(C(O)CCCN2CCC(C(O)(c3ccccc3)c3ccccc3)CC2)cc1 (centres undefined) [FEXOFENADINE]  Bacterial Biotransformation  Compound NOT metabolized
13  CCN(CC)CCOC(=O)C(Cc1cccc2ccccc12)CC1CCCO1.O=C(O)C(=O)O (centres undefined) [NAFRONYL OXALATE]  Bacterial Biotransformation      Compound metabolized
14  CCN(CC)CCNC(C(=O)OCCC(C)C)c1ccccc1.Cl.Cl (centres undefined)  Bacterial Biotransformation      Compound metabolized
15     CN1CCN(C2=Nc3cc(Cl)ccc3Nc3ccccc32)CC1  Bacterial Biotransformation  Compound NOT metabolized
16  CNCCC(Oc1ccc(C(F)(F)F)cc1)c1ccccc1 (centres undefined)  Bacterial Biotransformation  Compound NOT metabolized
17  CN1CCN(C(=O)O[C@H]2c3nccnc3C(=O)N2c2ccc(Cl)cn2)CC1  Bacterial Biotransformation  Compound NOT metabolized
18  COc1ccc2[nH]c([S+]([O-])Cc3ncc(C)c(OC)c3C)nc2n1 (centres undefined)  Bacterial Biotransformation      Compound metabolized

====

# run_description: The drug is tested on WLS-370 corresponding to human gut metagenome with ENA study accession number: PRJEB37062 and ENA sample accession number: ERS12561793 for biotransformation under anaerobic condition. The drug concentrations were measured over 9 timepoints collected between 0 and 24 hours of incubation by liquid-chromatography-coupled mass spectrometry (LC–MS)
# condition_description: 2 µM
value_type: Bacterial Biotransformation

>>> df
                                   molecule                     value
0  O=c1n(CCCN2CCN(c3cccc(Cl)c3)CC2)nc2ccccn12      Compound metabolized
1  CCN(CC)CC#CCOC(=O)C(O)(c1ccccc1)C1CCCCC1.Cl (centres undefined) [OXYBUTYNIN CHLORIDE]      Compound metabolized
2  Cc1nc2n(c(=O)c1CCN1CCC(c3noc4cc(F)ccc34)CC1)CCCC2O (centres undefined)      Compound metabolized
3  COc1cc2nc(N(C)CCCNC(=O)C3CCCO3)nc(N)c2cc1OC (centres undefined)      Compound metabolized
4           Cc1ccnc2c1NC(=O)c1cccnc1N2C1CC1      Compound metabolized
5  O=C(CCCN1CCC(O)(c2ccc(Cl)cc2)CC1)c1ccc(F)cc1  Compound NOT metabolized
6               Nc1ccc(/N=N/c2ccccc2)c(N)n1      Compound metabolized
7  Cc1ccc(-c2cc(C(F)(F)F)nn2-c2ccc(S(N)(=O)=O)cc2)cc1      Compound metabolized
8  CCc1nn(CCCN2CCN(c3cccc(Cl)c3)CC2)c(=O)n1CCOc1ccccc1  Compound NOT metabolized

====

# condition_description: human gut metagenome, 24 h, 2 µM
Where a SMILES comes first, the peptide text is derived from it. [ ]: non-standard residue; d: D form. pGlu = O=C1CC[C@@H](C(=O)O)N1; Thz = O=C(O)[C@@H]1CSCN1
value_type: Bacterial Biotransformation

                                   molecule                   value_type                     value
0  COc1ccc2[nH]c([S+]([O-])Cc3ncc(C)c(OC)c3C)nc2n1 (configuration not stated)  Bacterial Biotransformation  Compound NOT metabolized
1  O=C1CC[C@@H](C(=O)N2CSC[C@H]2C(=O)O)N1 [PIDOTIMOD] ([pGlu]-[Thz]-OH)  Bacterial Biotransformation  Compound NOT metabolized
2  CC(=O)OCC(=O)[C@@]12N=C(C)O[C@@H]1C[C@H]1[C@@H]3CCC4=CC(=O)C=C[C@]4(C)[C@H]3[C@@H](O)C[C@@]12C  Bacterial Biotransformation      Compound metabolized
3  COc1c(C)c2c(c(O)c1C/C=C(\C)CCC(=O)OCCN1CCOCC1)C(=O)OC2 [MYCOPHENOLATE MOFETIL]  Bacterial Biotransformation      Compound metabolized
4  CCN1CCCC1CNC(=O)c1cc(S(N)(=O)=O)ccc1OC (configuration not stated) [SULPIRIDE]  Bacterial Biotransformation      Compound metabolized
5  Cc1nc2n(c(=O)c1CCN1CCC(c3noc4cc(F)ccc34)CC1)CCCC2  Bacterial Biotransformation      Compound metabolized
6  CCCc1nc(C(C)(C)O)c(C(=O)OCc2oc(=O)oc2C)n1Cc1ccc(-c2ccccc2-c2nnn[nH]2)cc1  Bacterial Biotransformation      Compound metabolized

====

# condition_description: human gut metagenome, 24 h, 2 µM
value_type: Bacterial Biotransformation

                                    compound                     value
 0  CCc1nn(CCCN2CCN(c3cccc(Cl)c3)CC2)c(=O)n1CCOc1ccccc1      Compound metabolized
 1  CC(C)N(CCC(C(N)=O)(c1ccccc1)c1ccccn1)C(C)C.O=P(O)(O)O (configuration not stated) [DISOPYRAMIDE PHOSPHATE]  Compound NOT metabolized
 2  CN1CCN(CC/C=C2/c3ccccc3Sc3ccc(S(=O)(=O)N(C)C)cc32)CC1      Compound metabolized
 3  COC(=O)C1=C(C)NC(C)=C(C(=O)OC(C)C)C1c1cccc2nonc12 (configuration not stated)      Compound metabolized
 4        Cc1ccc(/C(=C\CN2CCCC2)c2ccccn2)cc1  Compound NOT metabolized
 5  O=C(O)COCCN1CCN(C(c2ccccc2)c2ccc(Cl)cc2)CC1 (configuration not stated)      Compound metabolized
 6  CC(C)(C(=O)O)c1ccc(C(O)CCCN2CCC(C(O)(c3ccccc3)c3ccccc3)CC2)cc1 (configuration not stated) [FEXOFENADINE]  Compound NOT metabolized
 7  CCC1(c2ccc(N)cc2)CCC(=O)NC1=O (configuration not stated) [AMINOGLUTETHIMIDE]  Compound NOT metabolized
 8  CCOC(=O)[C@H](CCc1ccccc1)N[C@@H](C)C(=O)N1[C@H](C(=O)O)C[C@H]2CCCC[C@@H]21  Compound NOT metabolized
 9  Cc1ccc(-c2cc(C(F)(F)F)nn2-c2ccc(S(N)(=O)=O)cc2)cc1  Compound NOT metabolized
10  O=P(O)(O)O.c1ccc(CN(CC2=NCCN2)c2ccccc2)cc1 [ANTAZOLINE PHOSPHATE]      Compound metabolized
11  CS(=O)(=O)O.OC(CCN1CCCCC1)(c1ccccc1)c1ccccc1 [PRIDINOL METHANESULFONATE]  Compound NOT metabolized
12  CC(=O)O[C@]1(C(C)=O)CC[C@H]2[C@@H]3C=C(Cl)C4=CC(=O)[C@@H]5C[C@@H]5[C@]4(C)[C@H]3CC[C@@]21C [CYPROTERONE ACETATE]      Compound metabolized
13  NC(=O)N1c2ccccc2CC(=O)c2ccccc21 [OXCARBAZEPINE]  Compound NOT metabolized
14  CC(C)NCC(O)c1ccc(NS(C)(=O)=O)cc1 (configuration not stated)  Compound NOT metabolized
15  COc1ccc2c3c1O[C@H]1C[C@@H](O)C=C[C@@]31CCN(C)C2      Compound metabolized
16  CCN(CC)CCOCCOC(=O)C1(c2ccccc2)CCCC1.O=C(O)CC(O)(CC(=O)O)C(=O)O [CARBETAPENTANE CITRATE]      Compound metabolized
